Value source: PubChem BioAssay (NCI)

System: RXF 393 renal
Assay: NCI-60 one-dose screen, 48 h
Details: 10 µM unless noted
Protocol: Cells are grown in 96 well plates and exposed to the test compound for 48 hours. Compounds are tested at a single concentration, which is 10^-5 M for most compounds. The reported endpoint is percent growth (GI% or GIPRCNT), where numbers from 0 - 100% represent growth inhibition, and numbers from -100% - 0 represent cell death. For example, a value of 40 represents 60% growth inhibition. A value of 0 means no net growth occurred over the course of the experiment. […]
The panel holds about 83,000 compounds, 20% with a hit somewhere; the sample as a whole holds those more often. Active and inactive are the calls of the source. Rule for the calls: active = growth percent below 10; inactive = the rest.
Respond using exactly one of the listed classes: active, inactive

[[record]]
compound = "CCCCCCCCCCCCCCCC[n+]1ccccc1"
label = "active"

[[record]]
compound = "CC12CCC3C4CCC(=O)C=C4CCC3C1CC1CC(=O)OC12 (stereo not drawn)"
label = "inactive"

[[record]]
compound = "CNC(=O)CCl"
label = "inactive"

[[record]]
compound = "CO[C@H]1[C@H](O[C@@H]2C[C@@H]3C/C=C/C(=O)O[C@@H](CO)C[C@H](O)[C@@H]4C[C@H](C)[C@H](C/C=C\\C=C\\[C@H](C)C[C@H](C2)O3)O4)O[C@@H](C)[C@H](O)[C@H]1O"
label = "inactive"

[[record]]
compound = "C[C@]12CCc3sc(Nc4ccc(OC(F)(F)F)cc4)nc3C1=CC[C@@H]1[C@@H]2CC[C@]2(C)C(=O)CC[C@@H]12"
label = "active"


# lookup: test call for "Cc1cc(NC(=O)NCCCOc2ccc(N3C(N)=NC(N)=NC3(C)C)cc2Cl)ccc1S(=O)(=O)F"
inactive

# lookup: test call for "CC(=O)c1cccc(S(=O)(=O)F)c1"
inactive

# lookup: test call for CCC(=O)C(CC(C)N1CCCCCC1)(c1ccccc1)c1ccccc1 (stereo not drawn)
inactive

# lookup: test call for COC12CC3C4=CCOC5CC(=O)N6c7ccccc7C1(CCN2C4)C6C53 (stereo not drawn)
inactive

# lookup: test call for "CC[C@H](C)[C@H]1O[C@]2(C=C[C@@H]1C)C[C@@H]1C[C@@H](C/C=C(\C)[C@@H](O[C@H]3C[C@H](OC)[C@@H](O[C@H]4C[C@H](OC)[C@@H](NC)[C@H](C)O4)[C@H](C)O3)[C@@H](C)/C=C/C=C3\CO[C@@H]4[C@H](O)C(C)=C[C@@H](C(=O)O1)[C@]34O)O2"
active

# lookup: test call for "O=c1c2ccccc2nc(-c2ccccc2Cl)n1-c1nnc(C(F)(F)F)s1"
inactive

# lookup: test call for "Cc1cc(Br)c([N+](=O)[O-])cc1[N+](=O)[O-]"
inactive

# lookup: test call for "C=C[Se]CC(=O)/C=C/c1ccccc1"
inactive

# lookup: test call for "Oc1ccccc1C=NCCN=Cc1ccccc1O.[Fe]"
inactive

# lookup: test call for COC(=O)C12C3C4C1C1C2C3C41NC(=O)c1csc([C@@H](C[C@H](C(C)C)N(C)C(=O)[C@@H](NC(=O)[C@H]2CCCCN2C)C2CC2)OC(C)=O)n1 (stereo partly drawn)
inactive

# lookup: test call for "O=C1CN2CCC1CC2"
inactive

# lookup: test call for "C/C=C(/C)C(=O)O[C@H]1CC[C@@]2(C)[C@@H]3CC[C@H]4[C@]5(O)C[C@H](O)[C@@]6(O)[C@@H](CN7C[C@@H](C)CC[C@H]7[C@@]6(C)O)[C@]5(O)C[C@@]42O[C@@]13O"
inactive

# lookup: test call for "O=C(Cc1ccccc1)c1ccccc1"
inactive
